Biological target: Sphingosine kinase 2 (Homo sapiens)
Assay: Inhibition of N-terminal GST-fused sphingosine kinase 2 (1-618) expressed in baculovirus expression system assessed as inhibition of sphingosine phosphorylation after 1 hr by off-chip mobility shift assay
Design: concentration or dose not given beside the values
Details: concentration not given here
EXPERIMENTAL ENDPOINT: inhibition (%)

(1) CCCCCCCCCCCCCC[C@@H]1OC[C@H](N)[C@@H]1O
(2) CCCCCCCCCCCCCC[C@@H]1OC[C@H](N)[C@H]1O
(3) CCCCCCCCCCCCCC[C@@H]1OC[C@@H](N)[C@@H]1O
(4) CCCCCCCCCCCCCC[C@H]1OC[C@@H](N)[C@@H]1O
Query: # descending inhibition order for the listed molecules Write out the labels following the order that was asked for.
Result: 2, 1, 4, 3
(2: 50%, 1: 6.6%, 4: 1.8%, 3: 0.48%)
